Ref: patent US6362134B1

# Tested on: Avena
# PROTOCOL: Herbicidal action before emergence of the plants (pre-emergent action)
# Type: in vivo
# EXPERIMENTAL_CONTEXT: 2000 g of active substance/ha, sprayed immediately after sowing, evaluated after 3 weeks, ratings scale of nine levels (1=complete damage, 9=no action)
# Experimental: Monocotyledon and dicotyledon test plants are sown in standard soil in plastic pots. Immediately after sowing, the test substances are sprayed on (500 l of water/ha) in an aqueous suspension prepared from a 25% wettable powder (Example F3, b)), corresponding to a dosage of 2000 g of active substance/ha. The test plants are then grown under optimum conditions in a greenhouse. After a test period of 3 weeks, the test is evaluated with a ratings scale of nine levels (1=complete damage, 9=no action). […]
REPORTED_ENDPOINT: Pre-emergent action, rating, Avena

MOLECULE: CC1CCC(OS2=NC(N)=NC(Oc3c(F)c(F)c(F)c(F)c3F)=N2)CC1 (stereo not drawn) [5.326]
REPORTED_ENDPOINT: Pre-emergent action, rating, Avena
MEASUREMENT: 4
//
MOLECULE: NC1=NC(Oc2c(F)c(F)c(F)c(F)c2F)=NS(N2CCC[C@H]3CCC[C@H]32)=N1 (relative stereo)
REPORTED_ENDPOINT: Pre-emergent action, rating, Avena
MEASUREMENT: 4
//
MOLECULE: NC1=NS(N2CCCCCCCC2)=NC(Oc2c(F)c(F)cc(F)c2F)=N1 (stereo not drawn)
REPORTED_ENDPOINT: Pre-emergent action, rating, Avena
MEASUREMENT: 3
//
MOLECULE: CC1CC2CCCCC2N1S1=NC(N)=NC(Oc2c(F)c(F)c(F)c(F)c2F)=N1 (stereo not drawn)
REPORTED_ENDPOINT: Pre-emergent action, rating, Avena
MEASUREMENT: 4
//
MOLECULE: CC1(C)CC2CC(C)(CN2S2=NC(N)=NC(Oc3c(F)c(F)c(F)c(F)c3F)=N2)C1 (single isomer, unassigned) [6.154]
REPORTED_ENDPOINT: Pre-emergent action, rating, Avena
MEASUREMENT: 4
//
MOLECULE: CN(Cc1ccccc1)S1=NC(N)=NC(Oc2c(F)c(F)c(F)c(F)c2F)=N1 (stereo not drawn)
REPORTED_ENDPOINT: Pre-emergent action, rating, Avena
MEASUREMENT: 2
//
MOLECULE: CC1CC(OS2=NC(N)=NC(Oc3c(F)c(F)c(F)c(F)c3F)=N2)CC(C)(C)C1 (stereo not drawn) [5.78]
REPORTED_ENDPOINT: Pre-emergent action, rating, Avena
MEASUREMENT: 3
//
MOLECULE: CC1CCC2C(CCN2S2=NC(N)=NC(Oc3c(F)c(F)c(F)c(F)c3F)=N2)C1 (stereo not drawn)
REPORTED_ENDPOINT: Pre-emergent action, rating, Avena
MEASUREMENT: 3
//
MOLECULE: NC1=NS(N2CCC[C@H]3CCCC[C@H]32)=NC(Oc2c(F)c(F)cc(F)c2F)=N1 (relative stereo)
REPORTED_ENDPOINT: Pre-emergent action, rating, Avena
MEASUREMENT: 4
//
MOLECULE: CC1CC2CCCCC2N(S2=NC(N)=NC(Oc3c(F)c(F)c(F)c(F)c3F)=N2)C1 (stereo not drawn)
REPORTED_ENDPOINT: Pre-emergent action, rating, Avena
MEASUREMENT: 5
//
MOLECULE: CCC1CCCCN1S1=NC(N)=NC(Oc2c(F)c(F)c(F)c(F)c2F)=N1 (stereo not drawn)
REPORTED_ENDPOINT: Pre-emergent action, rating, Avena
MEASUREMENT: 3
//
MOLECULE: CC(OS1=NC(N)=NC(Oc2c(F)c(F)c(F)c(F)c2F)=N1)[Si](C)(C)C (stereo not drawn)
REPORTED_ENDPOINT: Pre-emergent action, rating, Avena
MEASUREMENT: 2
//
MOLECULE: NC1=NC(Oc2c(F)c(F)c(F)c(F)c2F)=NS(N2CCCC3CCCCC32)=N1 (stereo not drawn)
REPORTED_ENDPOINT: Pre-emergent action, rating, Avena
MEASUREMENT: 3
//
MOLECULE: CC1CC(N(C)S2=NC(N)=NC(Oc3c(F)c(F)c(F)c(F)c3F)=N2)CC(C)(C)C1 (stereo not drawn)
REPORTED_ENDPOINT: Pre-emergent action, rating, Avena
MEASUREMENT: 7
//
MOLECULE: CC1CCC(OS2=NC(N)=NC(Oc3c(F)c(F)c(F)c(F)c3F)=N2)CC1 (stereo not drawn) [5.327]
REPORTED_ENDPOINT: Pre-emergent action, rating, Avena
MEASUREMENT: 4
